- assayed.target: wild type human RORγt ligand binding domain (RORγt LBD) (Homo sapiens)
- Construct: His-tag (N); TurboTEV protease cleavage site (ENLYFQG) (N)
- measurement.protocol: RORγt ThermoFluor® Assay (thermal shift, binding affinity)
- condition.description: pH 7.0, estimated from concentration response curves
- Protocol: This approach is applicable to a wide variety of systems, and rigorous in theoretical interpretation through quantitation of equilibrium binding constants (KD). […] Bar-coded assay plates are robotically loaded onto a thermostatically controlled PCR-type thermal block and then heated at a typical ramp-rate of 1 °C/min for all experiments. […] Images were collected at each temperature, and the sum of the pixel intensity in a given area of the assay plate was recorded versus temperature. […]
A collection of compounds and their measured log10(Kd)
assay.metric: log10(Kd) (log10 of the value in nM)

>>> quantitative_result("Cn1cncc1C(O)(c1ccc(Cl)cc1)c1ccc2nc(OCCN)c(-c3ccccc3)c(Cl)c2c1 (stereo not shown)")
3.54
>>> quantitative_result("Cn1cncc1C(O)(c1ccc2nc(Cl)c(-c3ccccc3)c(Cl)c2c1)c1ncccn1 (stereo not shown)")
3.52
>>> quantitative_result("CC(=O)N1CCC(C(O)(c2ccc(C(F)(F)F)nc2)c2cc(C)c3nc(C#N)c(-c4ccccc4)c(C#N)c3c2)CC1 (single isomer, unassigned) [Example 27c]")
2.91
>>> quantitative_result("CON(C)c1nc2ccc(C(O)(c3ccc(C(F)(F)F)nc3)c3cncn3C)cc2c(N(C)OC)c1-c1ccccc1 (stereo not shown)")
2.76
>>> quantitative_result("COc1nc2c(C)cc(C(O)(c3ccc(C(F)(F)F)nc3)c3cncn3C)cc2c(C#N)c1-c1ccc(OC(F)(F)F)cc1 (single isomer, unassigned) [Example 19b]")
2.56
>>> quantitative_result("COc1c(-c2ccccc2)c(C(F)(F)F)nc2ccc(C(O)(c3ccc(Cl)cc3)c3cncn3C)cc12 (single isomer, unassigned) [Example 33b]")
4.11
>>> quantitative_result("COc1nc2ccc(C(O)(c3cncn3C)c3cnnn3C)cc2c(Cl)c1-c1cccc(C(F)(F)F)c1 (single isomer, unassigned) [Example 3c]")
0.36
>>> quantitative_result("COc1nc2ccc(C(O)(c3ccc(C(F)(F)F)nc3)c3cncn3C)cc2c(Cl)c1-c1ccc(NS(C)(=O)=O)cc1 (stereo not shown)")
1.41
>>> quantitative_result("CC(=O)N1CCC(C(O)(c2ccccc2)c2cc(C)c3nc(C#N)c(-c4ccccc4)c(C#N)c3c2)CC1 (single isomer, unassigned) [Example 21c]")
2.04
>>> quantitative_result("CC(C)Oc1nc2ccc(C(O)(c3cccnc3)c3cccc(Cl)c3)cc2cc1-c1ccccc1 (stereo not shown)")
4.23
>>> quantitative_result("Cn1cncc1C(c1ccc(Cl)cc1)c1ccc2nc(C#N)c(-c3ccccc3)c(Cl)c2c1 (stereo not shown)")
2.95
>>> quantitative_result("N#Cc1nc2ccc(C(O)(c3cccc(Cl)c3)c3ccnc(C(F)(F)F)c3)cc2c(C#N)c1-c1ccccc1 (stereo not shown)")
4.26
>>> quantitative_result("COc1nc2ccc(C(O)(c3ccc(C(F)(F)F)nc3)c3cncn3C)cc2c(Cl)c1-c1ccc(Cl)s1 (single isomer, unassigned) [Example 14c]")
2.15

###

- assayed.target: wild type human RORγt LBD (Homo sapiens)
- Construct: expressed in transfected cells; host or cells: HEK293T
- Sequence (P51449 269-508 limits assumed): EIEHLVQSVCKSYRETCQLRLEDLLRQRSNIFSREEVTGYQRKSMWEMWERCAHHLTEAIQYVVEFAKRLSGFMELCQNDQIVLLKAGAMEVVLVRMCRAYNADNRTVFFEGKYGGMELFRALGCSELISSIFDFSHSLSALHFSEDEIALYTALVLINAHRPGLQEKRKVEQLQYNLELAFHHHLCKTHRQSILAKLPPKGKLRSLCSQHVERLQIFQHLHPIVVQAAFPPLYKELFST
- measurement.protocol: RORγt Reporter Assay (GAL4-RORγt LBD luciferase in HEK293T cells)
- Type: cell-based
- condition.description: HEK293T cells, compounds for 24 hours; read-out: RORγt reporter Assay, IC50
- Text: A reporter assay was used to test functional activity of RORγt modulatory compounds on transcriptional activation driven by the RORγt LBD. Cells used in the assay were co-transfected with two constructs. The first construct, pBIND-RORγt LBD, contained the wild type human RORγt LBD fused to the DNA binding domain of the GAL4 protein. The second construct, pGL4.31 (Promega Cat no. C935A), contained multiple GAL4 responsive DNA elements upstream of firefly luciferase. […]
A collection of molecules and their measured IC50
assay.metric: IC50 (nM)

>>> quantitative_result("CN(CCO)c1nc2ccc(C(O)(c3ccc(Cl)cc3)c3cncn3C)cc2c(Cl)c1-c1ccccc1 (stereo not shown) [Example 46]")
830
>>> quantitative_result("COc1nc2ccc(C(O)(c3cnnn3C)c3cnc(C)n3C)cc2c(Cl)c1-c1ccccc1 (stereo not shown) [Example 41a]")
320
>>> quantitative_result("Cc1cc(C(O)(c2ccc(C(F)(F)F)nc2)c2cncn2C)cc2c(C#N)c(-c3ccccc3)c(C#N)nc12 (single isomer, unassigned) [Example 25c]")
160
>>> quantitative_result("CON(C)c1nc2ccc(C(O)(c3ccc(Cl)cc3)c3cncn3C)cc2c(Cl)c1-c1ccccc1 (stereo not shown) [Example 58]")
150
>>> quantitative_result("CON(C)c1nc2ccc(C(O)(c3ccc(C(F)(F)F)nc3)c3cncn3C)cc2c(Cl)c1-c1ccccc1 (stereo not shown) [Example 56]")
23
>>> quantitative_result("Cc1ncc(C(O)(c2ccc3nc(Cl)c(-c4ccccc4)c(Cl)c3c2)c2cnnn2C)n1C (stereo not shown) [Example 39]")
34
>>> quantitative_result("COc1nc2ccc(C(O)(c3sc(C)nc3C)c3cncn3C)cc2c(Cl)c1-c1ccccc1 (stereo not shown) [Example 37]")
260

###

- assayed.target: wild type human RORγt LBD (Homo sapiens)
- Construct: expressed in transfected cells; host or cells: HEK293T
- Sequence (P51449 269-508 limits assumed): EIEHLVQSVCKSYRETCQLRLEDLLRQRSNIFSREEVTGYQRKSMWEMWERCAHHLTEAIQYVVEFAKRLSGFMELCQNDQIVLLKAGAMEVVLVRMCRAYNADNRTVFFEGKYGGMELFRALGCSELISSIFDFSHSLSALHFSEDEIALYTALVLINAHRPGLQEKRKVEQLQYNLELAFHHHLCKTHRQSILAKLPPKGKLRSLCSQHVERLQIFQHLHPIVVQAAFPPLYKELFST
- measurement.protocol: RORγt Reporter Assay (GAL4-RORγt LBD luciferase in HEK293T cells)
- Format: cell-based
- condition.description: HEK-293T, read-out: RORγt reporter Assay, % inhibition @ 6 µM, @ 6 µM; HEK293T cells
- Text: A reporter assay was used to test functional activity of RORγt modulatory compounds on transcriptional activation driven by the RORγt LBD. Cells used in the assay were co-transfected with two constructs. The first construct, pBIND-RORγt LBD, contained the wild type human RORγt LBD fused to the DNA binding domain of the GAL4 protein. The second construct, pGL4.31 (Promega Cat no. C935A), contained multiple GAL4 responsive DNA elements upstream of firefly luciferase. […]
assay.metric: inhibition at 6 µM

>>> result("Cn1cncc1C(O)(c1ccc(Cl)cc1)c1ccc2nc(Cl)c(-c3ccccn3)c(Cl)c2c1 (centres unmarked)")
"87%"
>>> result("COc1c(-c2ccccc2)c(Cl)nc2ccc(C(O)(c3cnnn3C)c3cnc(C)n3C)cc12 (single isomer, unassigned) [Example 40b]")
"97%"
>>> result("COc1nc2c(C)cc(C(O)(c3ccc(C(F)(F)F)nc3)c3cncn3C)cc2c(Cl)c1-c1ccc(OC(F)(F)F)cc1 (centres unmarked)")
"26%"
>>> result("COc1nc2ccc(C(O)(c3ccc(C(F)(F)F)nc3)c3cncn3C)cc2c(Cl)c1-c1ccc(C#N)cc1 (centres unmarked)")
"86%"
>>> result("CCCCc1c(-c2ccccc2)c(OC(C)C)nc2ccc(C(O)(c3ccncc3)c3cncn3C)cc12 (centres unmarked)")
"72%"
>>> result("CON(C)c1nc2ccc(C(O)(c3ccc(C(F)(F)F)nc3)c3cncn3C)cc2c(N(C)OC)c1-c1ccccc1 (centres unmarked)")
"100%"
>>> result("COc1nc2ccc(C(O)(c3sc(C)nc3C)c3cncn3C)cc2c(Cl)c1-c1ccccc1 (centres unmarked)")
"90%"
>>> result("COc1nc2ccc(C(O)(c3cncn3C)c3cnnn3C)cc2c(C#N)c1-c1cccc(C(F)(F)F)c1 (single isomer, unassigned)")
"98%"
>>> result("CN(C)c1nc2ccc(C(c3ccc(Cl)cc3)c3cncn3C)cc2c(Cl)c1-c1ccccc1 (centres unmarked)")
"84%"
>>> result("OC(c1ccccc1)(c1ccc2nc(Cl)c(-c3ccccc3Cl)c(Cl)c2c1)c1ncco1 (centres unmarked)")
"60%"
>>> result("COc1nc2ccc(C(O)(c3ccc(C(F)(F)F)nc3)c3cncn3C)cc2c(Cl)c1-c1cccc(NS(C)(=O)=O)c1 (centres unmarked)")
"90%"
>>> result("Cn1cncc1C(O)(c1ccc(C#N)cc1)c1ccc2nc(C(F)(F)F)c(-c3ccccc3)c(C#N)c2c1 (centres unmarked)")
"96%"
>>> result("CON(C)c1nc2ccc(C(O)(c3ccc(Cl)cc3)c3cncn3C)cc2c(N(C)OC)c1-c1ccccc1 (centres unmarked)")
"98%"
>>> result("Cc1nc(C)c(C(O)(c2ccc3nc(C#N)c(-c4ccccc4)c(C#N)c3c2)c2cnnn2C)s1 (centres unmarked) [Example 47a]")
"98%"
>>> result("COc1ncc(-c2c(OC)nc3ccc(C(O)(c4ccc(C(F)(F)F)nc4)c4cncn4C)cc3c2Cl)cn1 (centres unmarked)")
"-29%"
>>> result("Cn1cncc1C(O)(c1ccc(Cl)cc1)c1ccc2nc(OCCN)c(-c3ccccc3)c(Cl)c2c1 (centres unmarked)")
"52%"
>>> result("Cn1cncc1C(O)(c1ccc(Cl)cc1)c1ccc2nc(OCC(F)(F)F)c(-c3ccccc3)c(Cl)c2c1 (centres unmarked)")
"93%"
>>> result("COCCOc1nc2ccc(C(O)(c3ccc(Cl)cc3)c3cncn3C)cc2c(Cl)c1-c1ccccc1 (centres unmarked)")
"103%"
>>> result("COc1c(-c2ccccc2)c(Cl)nc2ccc(C(O)(c3sc(C)nc3C)c3cnnn3C)cc12 (centres unmarked)")
"97%"
>>> result("N#Cc1nc2ccc(C(O)(c3cccc(Cl)c3)c3ccnc(C(F)(F)F)c3)cc2c(C#N)c1-c1ccccc1 (centres unmarked)")
"80%"
>>> result("N#Cc1nc2ccc(C(O)(c3ccc(C(F)(F)F)nc3)c3cccc(Cl)c3)cc2cc1-c1ccccc1 (centres unmarked)")
"99%"
>>> result("Cn1cncc1C(O)(c1ccc2nc(Cl)c(-c3ccccc3)c(Cl)c2c1)c1ncccn1 (centres unmarked)")
"70%"
>>> result("COCCN(C)c1nc2ccc(C(O)(c3ccc(Cl)cc3)c3cncn3C)cc2c(Cl)c1-c1ccccc1 (centres unmarked)")
"99%"
>>> result("Cn1cncc1C(O)(c1ccc(Cl)cc1)c1ccc2nc(Cl)c(-c3cccnc3)c(Cl)c2c1 (centres unmarked)")
"92%"
>>> result("COc1nc2ccc(C(O)(c3ccc(C(F)(F)F)nc3)c3cncn3C)cc2c(Cl)c1-c1cncc(S(C)(=O)=O)c1 (centres unmarked)")
"-52%"
>>> result("COc1c(-c2ccccc2)c(Cl)nc2ccc(C(O)(c3sc(C)nc3C)c3cncn3C)cc12 (centres unmarked)")
"93%"
>>> result("CC(=O)N1CCC(C(O)(c2ccccc2)c2cc(C)c3nc(C#N)c(-c4ccccc4)c(C#N)c3c2)CC1 (single isomer, unassigned) [Example 21b]")
"87%"
>>> result("CON(C)c1nc2ccc(C(O)(c3ccc(C(F)(F)F)nc3)c3cncn3C)cc2c(Cl)c1-c1ccccc1 (centres unmarked)")
"102%"
>>> result("COc1c(-c2ccccc2)c(C(F)(F)F)nc2ccc(C(O)(c3ccccn3)c3cncn3C)cc12 (single isomer, unassigned) [Example 32b]")
"92%"
